# Tested on: KM12 colon
# assayInfo: NCI tumour cell line growth inhibition, 48 h
endpointName: GI50

Ask | Return GI50 measured with KM12 colon given this molecule: O=C(OCc1ccc2c(Cl)cc(Cl)c(O)c2n1)c1cc2ccccc2[nH]1
Reply | 1690 nM

Ask | Return GI50 measured with KM12 colon given this molecule: CN(CCCl)c1ccc(/C=C/C2=[N+](C)c3ccccc3C2(C)C)cc1
Reply | 355 nM

Ask | Return GI50 measured with KM12 colon given this molecule: CCC[CH2][Sn]([CH2]CCC)([O]C(=O)C1CCC(=O)N1)[O]C(=O)C1CCC(=O)N1 (stereo not drawn)
Reply | 496 nM

Ask | Return GI50 measured with KM12 colon given this molecule: CNCCCNc1nc2ccccc2c2c(=O)c3cc(Cl)ccc3sc12
Reply | 1480 nM

Ask | Return GI50 measured with KM12 colon given this molecule: C=C1C(=O)O[C@H]2[C@H]1CC/C(COC(=O)c1ccc(C#N)cc1)=C\CC[C@@]1(C)O[C@@H]21
Reply | 3940 nM

Ask | Return GI50 measured with KM12 colon given this molecule: CCCCC#CC#Cc1cccc(=O)o1
Reply | 13500 nM

Ask | Return GI50 measured with KM12 colon given this molecule: C#Cc1cccc(Nc2nc3ccc([N+](=O)[O-])cc3nc2Nc2cccc(C#C)c2)c1
Reply | 299 nM

Ask | Return GI50 measured with KM12 colon given this molecule: CCCCCCCC(=O)SCC/C=C/[C@@H]1CC(=O)NCc2nc(co2)C2=N[C@@](C)(CS2)C(=O)N[C@@H](C(C)C)C(=O)O1
Reply | 25.3 nM

Ask | Return GI50 measured with KM12 colon given this molecule: O=C1C(Cl)=C(Nc2cccc(O)c2)C(=O)N1c1ccccc1Cl
Reply | 59500 nM

Ask | Return GI50 measured with KM12 colon given this molecule: Cc1nc2n(c(=O)c1CCN1CCC(c3noc4cc(F)ccc34)CC1)CCCC2
Reply | > 50000 nM

Ask | Return GI50 measured with KM12 colon given this molecule: Cc1cc(C)nc(SC2=C(Nc3cccc(Cl)c3C)C(=O)N(Cc3ccccc3)C2=O)n1
Reply | > 160000 nM

Ask | Return GI50 measured with KM12 colon given this molecule: C#CCOc1cccc(Nc2ncnc3ccc(NC(=O)CCl)cc23)c1
Reply | 776 nM

Ask | Return GI50 measured with KM12 colon given this molecule: CC1=C[S+](c2ccccc2)c2cccc3cc4ccccc4c1c23 (stereo not drawn)
Reply | 109 nM

Ask | Return GI50 measured with KM12 colon given this molecule: O=C1/C(=C/c2ccccc2)CN(C(=O)OCc2ccccc2)C/C1=C\c1ccccc1
Reply | 2680 nM

Ask | Return GI50 measured with KM12 colon given this molecule: O=C1CCc2c(sc3[nH]c(=S)n(Cc4ccccc4)c(=O)c23)C1
Reply | 1730 nM

Ask | Return GI50 measured with KM12 colon given this molecule: Cc1nc(N)sc1C(=O)Nc1cc(C(=O)NCCCN(C)C)n(C)c1
Reply | > 100000 nM

Ask | Return GI50 measured with KM12 colon given this molecule: CCC1CCc2nc3sc(C(=O)Nc4ccccc4C)c(N)c3cc2C1 (stereo not drawn)
Reply | 502 nM

Ask | Return GI50 measured with KM12 colon given this molecule: CS(=O)(=O)CCNCc1ccc(-c2ccc3ncnc(Nc4ccc(OCc5ccccc5)c(Cl)c4)c3c2)o1
Reply | 6410 nM

* * *

# Tested on: HCT-116 colon
# assayInfo: NCI tumour cell line growth inhibition, 48 h; in the data active = GI50 below about 0.43 µM; inactive = the rest
Hi there, use one of these labels in your reply, thanks! active, inactive

Ask | // param item: C/C(=C\c1ccc(Cl)c(Cl)c1)[N+](=O)[O-] ; yields the recorded call
Reply | inactive

Ask | // param item: CC1=C[S+](c2ccccc2)c2cccc3cc4ccccc4c1c23 (configuration not stated) ; yields the recorded call
Reply | active

Ask | // param item: Nc1nc(N)c2nc(CNc3ccc(C(=O)NC(CCCNC(=O)c4ccccc4C(=O)O)C(=O)O)cc3)cnc2n1 (configuration not stated) ; yields the recorded call
Reply | active

Ask | // param item: O=C(O)CCCOc1cc(-c2ccccc2F)nc2cc3c(cc12)OCO3 ; yields the recorded call
Reply | inactive

Ask | // param item: CCCCCCCC(=O)SCC/C=C/[C@@H]1CC(=O)NCc2nc(co2)C2=N[C@@](C)(CS2)C(=O)N[C@@H](C(C)C)C(=O)O1 ; yields the recorded call
Reply | active

Ask | // param item: O=C(c1ccccc1)c1nc2ccc(C(F)(F)F)cc2[n+]([O-])c1C(F)(F)F ; yields the recorded call
Reply | inactive

Ask | // param item: CCOC(=O)c1cc2c(n1Cc1ccccc1)-c1oncc1CC2 ; yields the recorded call
Reply | inactive

Ask | // param item: Nc1c(C(=O)Nc2ccccc2F)sc2nc3c(cc12)C(=O)CCC3 ; yields the recorded call
Reply | inactive

Ask | // param item: Cc1cc(C)nc(SC2=C(Nc3cccc(Cl)c3C)C(=O)N(Cc3ccccc3)C2=O)n1 ; yields the recorded call
Reply | inactive

Ask | // param item: COc1ccc(-c2ccc(/C=N/n3c(C)nn(CN4CCN(C)CC4)c3=S)o2)c([N+](=O)[O-])c1 ; yields the recorded call
Reply | inactive

Ask | // param item: Cc1nc(N)sc1C(=O)Nc1cc(C(=O)NCCCN(C)C)n(C)c1 ; yields the recorded call
Reply | inactive

Ask | // param item: C=C1C(=O)O[C@H]2[C@H]1CC/C(COC(=O)c1ccc(C#N)cc1)=C\CC[C@@]1(C)O[C@@H]21 ; yields the recorded call
Reply | inactive

* * *

# Test system: HCT-15 colon
# assayInfo: NCI tumour cell line growth inhibition, 48 h
endpointName: TGI

Ask | Please look up its TGI: O=C(NO)C(=O)Nc1ccc(Cl)cc1[N+](=O)[O-]
Reply | > 100 µM

Ask | Please look up its TGI: C/C(Cc1ccc(Cl)cc1)=C(/c1ccc(Cl)cc1)c1ccc(OCCN(C)C)cc1
Reply | 4.27 µM

Ask | Please look up its TGI: CC(=O)Nc1ccc(C(=O)NN2C(=O)C(Cl)C2c2ccccc2O)cc1 (stereo unspecified)
Reply | > 100 µM

Ask | Please look up its TGI: O=C1OCc2cccc3c2-c2c1cccc2C(=O)OC3
Reply | > 100 µM

Ask | Please look up its TGI: CCc1nc(N)nc(N)c1-c1ccc(NCCc2ccccc2)c([N+](=O)[O-])c1
Reply | > 57.5 µM

Ask | Please look up its TGI: COc1ccc(C2SC(C)C(=O)N2c2nc(-c3nc(-c4ccc(Cl)cc4)cs3)cs2)cc1 (stereo unspecified)
Reply | > 100 µM

Ask | Please look up its TGI: Cc1ccc(S(=O)(=O)NC(=O)Nc2ccc(S(N)(=O)=O)cc2S(N)(=O)=O)cc1
Reply | > 100 µM

Ask | Please look up its TGI: COC(=O)c1ccccc1/C=C1\Cc2cc(C)c(C)cc2C1=O
Reply | > 100 µM

Ask | Please look up its TGI: CCOC(=O)c1ccc(-n2c(SCC)nc3sc(C)c(C)c3c2=O)cc1
Reply | > 100 µM

Ask | Please look up its TGI: Cc1ccsc1/C=N/Nc1nncc2ccccc12
Reply | > 100 µM

Ask | Please look up its TGI: CC(C)C(/C=C/c1ccc(Br)cc1)=N\NC(N)=O
Reply | > 100 µM

* * *

# System: U251 CNS
# assayInfo: NCI tumour cell line growth inhibition, 48 h
I'd be grateful if you could share measured log10 TGI for these entries.
In our notation, the value equals log10 of TGI in µM.

Ask | Please look up its log10 TGI: N[C@@H]1CCCN(c2c(/C=C3\SC(=O)NC3=O)cccc2-c2ccccc2)C1
Reply | 1.18

Ask | Please look up its log10 TGI: C#Cc1cccc(Nc2nc3ccc([N+](=O)[O-])cc3nc2Nc2cccc(C#C)c2)c1
Reply | -0.32

Ask | Please look up its log10 TGI: COc1cc([C@@H]2c3cc4c(cc3[C@@H](NC(=O)c3cccc(F)c3)C3COC(=O)[C@@H]32)OCO4)cc(OC)c1O (some centres undefined)
Reply | 0.29

Ask | Please look up its log10 TGI: C=C(C)[C@@H]1CC[C@]2(COC3CCCCO3)CC[C@]3(C)[C@H](CC[C@@H]4[C@@]5(C)C=C(C=O)C(=O)C(C)(C)[C@@H]5CC[C@]43C)[C@@H]12 (some centres undefined)
Reply | 0.43

Ask | Please look up its log10 TGI: C=CCOC(=O)[C@@H]1C[C@@H](OC(C)(C)C)CN1C(=O)[C@@H]1[C@H]2OC(C)(C)O[C@H]2CN1C(=O)OCC1c2ccccc2-c2ccccc21
Reply | 1.46

Ask | Please look up its log10 TGI: C=C1C(=O)O[C@H]2[C@H]1CC/C(COC(=O)c1ccc(C#N)cc1)=C\CC[C@@]1(C)O[C@@H]21
Reply | 1.01
